Please respond with reported pIC50 for every item in the list.
target: PI3Kγ (p120γ) (Homo sapiens); construct: purchased Promega V1761; assay: Inhibition of PI3K kinase activity (ADP Glo), PI3Kγ; settings: Table 1, p120γ, read-out: biochemical potency (PI3Kγ IC50)
Sequence (P48736 whole entry): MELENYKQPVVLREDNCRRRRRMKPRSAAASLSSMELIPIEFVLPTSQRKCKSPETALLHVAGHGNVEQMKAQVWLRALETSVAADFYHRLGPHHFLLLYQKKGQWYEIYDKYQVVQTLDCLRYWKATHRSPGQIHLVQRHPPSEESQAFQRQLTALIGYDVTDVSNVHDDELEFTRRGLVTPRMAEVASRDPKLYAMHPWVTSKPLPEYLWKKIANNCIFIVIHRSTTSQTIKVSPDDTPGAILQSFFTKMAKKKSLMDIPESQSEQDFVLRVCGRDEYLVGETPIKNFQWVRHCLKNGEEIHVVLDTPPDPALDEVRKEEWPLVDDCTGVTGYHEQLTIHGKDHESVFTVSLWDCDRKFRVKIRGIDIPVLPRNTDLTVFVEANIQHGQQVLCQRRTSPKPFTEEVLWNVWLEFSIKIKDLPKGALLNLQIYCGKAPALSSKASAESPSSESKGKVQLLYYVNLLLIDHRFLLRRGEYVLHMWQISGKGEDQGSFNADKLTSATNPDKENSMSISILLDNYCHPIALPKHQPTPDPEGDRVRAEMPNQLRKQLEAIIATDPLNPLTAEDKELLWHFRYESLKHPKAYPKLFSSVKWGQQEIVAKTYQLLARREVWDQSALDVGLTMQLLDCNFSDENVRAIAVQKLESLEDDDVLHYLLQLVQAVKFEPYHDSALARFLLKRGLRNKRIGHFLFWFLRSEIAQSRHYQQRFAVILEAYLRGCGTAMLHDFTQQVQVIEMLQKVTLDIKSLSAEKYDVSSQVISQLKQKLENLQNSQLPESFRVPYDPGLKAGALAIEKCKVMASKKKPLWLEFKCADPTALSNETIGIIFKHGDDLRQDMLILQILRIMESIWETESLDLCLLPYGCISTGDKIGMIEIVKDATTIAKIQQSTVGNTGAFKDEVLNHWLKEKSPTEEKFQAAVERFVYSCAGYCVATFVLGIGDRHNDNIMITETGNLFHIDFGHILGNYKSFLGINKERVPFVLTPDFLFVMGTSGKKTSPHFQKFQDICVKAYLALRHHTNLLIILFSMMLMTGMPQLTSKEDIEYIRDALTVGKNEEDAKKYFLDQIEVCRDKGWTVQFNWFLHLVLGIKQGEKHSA
pIC50: −log10 of the molar value.

Fill blank: measured pIC50 of the molecule CO[C@H]1C[C@H](NC(=O)c2c(N)nn3ccc(-c4cc5c(c(NS(C)(=O)=O)c4)C(=O)N([C@@H](C)C4CC4)C5)nc23)C1 [Example 84] is ____.
> 7.00

What value of pIC50 has been reported for the following molecule? C[C@@H](C1CC1)N1Cc2cc(-c3ccn4nc(N)c(C(=O)NC5CC5)c4n3)cc(Cl)c2C1=O [Example 162]
> 7.00

Recorded pIC50 of C[C@@H](C1CC1)N1Cc2cc(-c3ccn4nc(N)c(C(=O)NC5(C#N)CCC5)c4n3)cc(NS(C)(=O)=O)c2C1=O [Example 81] , please.
> 7.00

Attribution: patent US20230024302A1
